Tested on: MDA-MB-435
Test: NCI tumour cell line growth inhibition, 48 h
Activity calls are given as the source filed them. No stated cut-off is given here; in the data, active = GI50 up to about 1.1 µM and inactive = higher.
Outcomes: yes for active, no for inactive

1) c1ccc2c(CN3CCC(C4CCN(Cc5cccc6ccccc56)CC4)CC3)cccc2c1 | no
2) COc1cc(N/N=C/C#N)cc(OC)c1OC | no
3) Cc1nc(C)c(N2CCN(C#N)CC2)c(O)n1 | no
4) CSC(SC)(C(=O)O)c1cc(-c2c(Cl)cccc2Cl)no1 | no
5) Cc1csc2nc(-c3ccc([N+](=O)[O-])cc3)c(/C=N/N=C(N)N)n12 | no
6) Cc1ccccc1/N=N/c1cc(C)c(/N=N/c2c(O)ccc3ccccc23)cc1C | no
7) COc1ccc2c(c1)/C(=C/CCN(C)C)c1ccccc1S2 | no
8) O=C1CCC2(c3ccc(F)cc3)Nc3ncncc3N12 (centres undefined) | no
9) N#Cc1c(O)c(/N=N/c2ccccc2F)c(=O)n2c1[nH]c1ccccc12 | no
10) O=C1CSC(c2cccc(Cl)c2)N1c1ccc(-c2ccc(-n3c(-c4ccccc4)nc4ccccc4c3=O)cc2)cc1 (centres undefined) | no
11) O=C(O)c1ccc(OCc2ccccc2)c(Cl)c1 | no
12) COc1ccc(-c2[nH]c3c4c(nc5c(c24)C(=O)CC(C)(C)C5)CC(C)(C)C3)cc1 | no
13) COC(=O)c1cc(C)n(CN(Cn2nc(C(=O)OC)cc2C)c2ccccc2)n1 | no
14) O=c1c(Cl)c(Cl)cnn1CCCl | no
15) O=C(Nc1ccc2ccccc2c1)c1cc2cc(CCl)ccc2oc1=O | no
16) COc1ccc2c(c1O)C13CCN(C)C(C2)C1CCC1(C3)OCCO1 (centres undefined) | no
17) C=CCNC(=O)N1CC(C)C(=O)Nc2ccccc21 (centres undefined) | no
18) CCOC(=O)c1[nH]c2nc(SC)nc(Nc3ccccc3Cl)c2c1N | no
19) Cc1cccc2c(N)c3cccc(C(=O)NCC[N+](C)(C)Cc4sccc4[N+](=O)[O-])c3nc12 | no
20) N=C(Cc1ccccc1)NCC(=O)O | no
21) ClCCN(CCCl)c1ccc(/C=N/Nc2ccnc3ccccc23)cc1 | no
22) Oc1ccc(Cn2c(-c3ccc(O)c(O)c3)nc3ccccc32)cc1O | no
23) CCOC(=O)C(Cc1cc(OC)c(CC(C(=O)OCC)C(=O)OCC)cc1OC)C(=O)OCC | no
24) CC(=O)n1nc(-c2ccccc2)n(/N=C/c2ccc([N+](=O)[O-])o2)c1=O | no
25) CCCOc1cc2c(cc1O)CC[C@@H]1[C@@H]2CC[C@]2(C)[C@@H](O)CC[C@@H]12 | yes
26) C#CCn1c(=O)c(C)cn(/C(=C\C(=O)OCC)C(=O)OCC)c1=O | no
27) C/C(=N\NC(=S)N1CCN(c2ccccn2)CC1)c1cccc(C)n1 | no
28) N[C@@H]1CCN(c2c(F)cc3c(=O)c(C(=O)O)cn4c3c2Oc2c-4ccc3c2ccc2ccccc23)C1 | no
29) COc1ccc2c(c1)OCC1Cc3ccccc3OC21 (centres undefined) | no
30) Cc1sc(Nc2ccc(Nc3nc(-c4ccccc4)c(C)s3)cc2)nc1-c1ccccc1 | no
31) CSc1nc(O)c(C#N)c(-c2ccccc2)n1 | no
32) c1ccc2sc(C3(N4CCCC4)CCCCCC3)cc2c1 | no
33) COc1ccc2c(c1)C(=O)C1CCC(=O)N1C2c1ccc2c(c1)OCO2 (centres undefined) | no
34) CC12CC(C/C1=N/O)C(C)(C)C2 (centres undefined) | no
35) CCOC(=O)c1cc(C2CCN(CC(C)CC)C2=S)c(-c2cc(C)no2)[nH]1 (centres undefined) | no
36) O=C(O)c1nc2ccc(C(F)(F)F)cc2[nH]c1=O | no
37) CSc1ccc(/C=C2\N=C(c3ccccc3)N(/N=C/c3cc4cc(C)ccc4nc3Cl)C2=O)cc1 | no
38) O=c1cc(N2CCCC2)[nH]c(=O)n1-c1cccc(C(F)(F)F)c1 | no
39) COc1ccc(C(=O)C(Br)C(Br)C(=O)O)cc1 (centres undefined) | no
40) CC1(C)OCC2OC3([C@H](O)CCO)OC(C)(C)OC3C2O1 (some centres undefined) | no
41) CCOC(=O)/C(=N/Nc1ccc(Cl)cc1)N1C(=S)N(C)N=C(C)C=C1S | no
42) NS(=O)(=O)c1nnc(NS(=O)(=O)C(F)(F)F)s1 | no
43) COC(=O)C1=C(C(=O)OC)C(N(C)C)C(C(=O)OC)=C(C(=O)OC)S1 | no
44) COc1cccc(-c2cc(O)c3c(C)cc(C)nc3n2)c1 | yes
